Each entry below lists one item and its recorded inhibition value.
- target_system: Adenosine receptor A2a (Homo sapiens)
- Sequence (P29274 whole entry): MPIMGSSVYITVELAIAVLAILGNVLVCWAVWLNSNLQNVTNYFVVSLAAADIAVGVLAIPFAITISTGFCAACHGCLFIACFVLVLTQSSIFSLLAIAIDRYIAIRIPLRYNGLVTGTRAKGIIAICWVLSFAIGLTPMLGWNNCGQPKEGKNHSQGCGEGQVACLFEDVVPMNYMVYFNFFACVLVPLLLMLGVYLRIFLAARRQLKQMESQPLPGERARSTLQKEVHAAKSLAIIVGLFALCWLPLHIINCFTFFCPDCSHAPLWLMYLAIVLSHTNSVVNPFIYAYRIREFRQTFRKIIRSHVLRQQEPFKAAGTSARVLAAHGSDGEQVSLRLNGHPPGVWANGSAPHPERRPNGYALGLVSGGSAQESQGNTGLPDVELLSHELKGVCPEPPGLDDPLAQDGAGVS
- measurement_protocol: Displacement of [3H]ZM-241385 from recombinant human adenosine A2A receptor expressed in HeLa cells at 0.1 uM
Write down the numeric answer in % and omit the unit.

1. CCCn1c(=O)c2[nH]c(-c3ccc(OCC(=O)OCC)cc3OC)cc2n(CCC)c1=O : 10
2. CCCn1c(=O)c2[nH]c(-c3ccc(N(C=O)CC(=O)Nc4ccc(F)cc4)cc3)cc2n(CCC)c1=O : 89
3. CC(C)Cn1c(=O)c2[nH]c(-c3ccc(OCC(=O)Nc4ccccc4)cc3)cc2n(C)c1=O : 2
4. CCCn1c(=O)c2[nH]c(-c3ccc(OCC(=O)Nc4ccc(Br)cc4)cc3Cl)cc2n(CCC)c1=O : 31
5. CCCn1c(=O)c2[nH]c(-c3ccc(OCC(=O)Nc4ccc(C(F)(F)F)cc4)cc3)cc2n(CCC)c1=O : 19
6. COc1cc(-c2cc3c([nH]2)c(=O)n(C)c(=O)n3C)ccc1OCC(=O)Nc1ccc(C#N)cc1 : 5

Qu. Would you kindly share the measured inhibition for `CCCn1c(=O)c2[nH]c(-c3ccc(OCC(=O)Nc4ccc(C)cn4)cc3)cc2n(C)c1=O` ?
Ans. 12

Qu. Would you kindly share the measured inhibition for `CCCn1c(=O)c2[nH]c(-c3ccc(OCC(=O)Nc4ccc(I)cc4)cc3)cc2n(C)c1=O` ?
Ans. 24

Qu. Would you kindly share the measured inhibition for `CCCn1c(=O)c2[nH]c(-c3ccc(OCC(=O)Nc4ccc(Br)cc4)cc3)cc2n(CCC)c1=O` ?
Ans. 54

Qu. Would you kindly share the measured inhibition for `CCCn1c(=O)c2[nH]c(-c3ccc(OCC(=O)Nc4ccccc4)cc3)cc2n(C)c1=O` ?
Ans. 18

Qu. Would you kindly share the measured inhibition for `CCCn1c(=O)c2[nH]c(-c3ccc(OCC(=O)Nc4ccc(C5=NC(C)(C)CO5)cc4)cc3)cc2n(CCC)c1=O` ?
Ans. 25

* * *

Each entry below lists one item and its recorded inhibition value.
- target_system: UniProt:P29275
- Sequence (P29275 whole entry): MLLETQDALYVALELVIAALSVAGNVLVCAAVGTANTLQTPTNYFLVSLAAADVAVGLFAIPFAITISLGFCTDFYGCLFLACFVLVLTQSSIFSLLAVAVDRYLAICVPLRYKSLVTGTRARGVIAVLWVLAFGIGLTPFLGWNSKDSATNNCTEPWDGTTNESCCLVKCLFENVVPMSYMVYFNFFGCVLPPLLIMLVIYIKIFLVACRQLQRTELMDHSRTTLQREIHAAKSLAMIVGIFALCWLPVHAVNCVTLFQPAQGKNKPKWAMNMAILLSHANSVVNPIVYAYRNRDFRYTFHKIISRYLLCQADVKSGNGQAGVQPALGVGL
- measurement_protocol: Displacement of [3H]DPCPX from recombinant human adenosine A2B receptor expressed in HEK293 cells at 0.01 uM
Your reply should be a number followed by the unit it is expressed in.

1) CCCn1c(=O)c2[nH]c(-c3ccc(OCC(=O)Nc4cc(F)ccc4O)cc3)cc2n(CCC)c1=O : 29%
2) Cn1c(=O)c2[nH]c(-c3ccc(OCC(=O)NC4CCc5ccccc54)cc3)cc2n(C)c1=O (stereo not drawn) : 30%
3) CCCn1c(=O)c2[nH]c(-c3ccc(OCC(=O)Nc4ccc(F)cc4)cc3)c(Cl)c2n(CCC)c1=O : 10%
4) CC(Oc1ccc(-c2cc3c([nH]2)c(=O)n(C)c(=O)n3C)cc1)C(=O)Nc1ccc(Br)cc1 (stereo not drawn) : 89%
5) CCCn1c(=O)c2[nH]c(-c3ccc(OCC(=O)Nc4ccc(I)cc4)cc3)cc2n(CCC)c1=O : 30%
6) CC(=O)c1ccc(NC(=O)COc2ccc(-c3cc4c([nH]3)c(=O)n(C)c(=O)n4C)cc2)cc1 : 65%

Qu. Would you kindly share the measured inhibition for `CCCn1c(=O)c2[nH]c(-c3ccc(OCC(=O)Nc4ccc(Br)cc4)cc3Cl)cc2n(CCC)c1=O` ?
Ans. 17%

Qu. Would you kindly share the measured inhibition for `CCCn1c(=O)c2[nH]c(-c3ccc(OCC(=O)Nc4ccc(CC(=O)OCC)cc4)cc3)cc2n(C)c1=O` ?
Ans. 10%
